Tested on: strain ENV735
Run Description: Growth substrates for ENV735
Type: cell-based, Hydrogenophaga flava
Condition Label: growth of ENV735 on the substrate
Measured Attribute: Growth

>>> assay_result("CC(O)C(=O)O (stereo not shown) [Lactic acid]")
"+/−"
>>> assay_result("N[C@@H](CCC(=O)O)C(=O)O [Glutamic acid]")
"+/−"
>>> assay_result("CCCO [1-Propanol]")
"+/−"
>>> assay_result("CO [Methanol]")
"−"
>>> assay_result("CCC(C)C [Iso-Pentane]")
"−"
>>> assay_result("CC(=O)C(=O)O [Pyruvic acid]")
"+/−"
>>> assay_result("CCC(=O)O [Propionic acid]")
"−"
>>> assay_result("COC(C)(C)C [MTBE, methyl-tert-butyl ether]")
"+"
>>> assay_result("OC[C@H]1O[C@@](CO)(O[C@H]2O[C@H](CO)[C@@H](O)[C@H](O)[C@H]2O)[C@@H](O)[C@@H]1O [Sucrose]")
"+++"
>>> assay_result("CC(=O)[O-].[Na+] [Sodium acetate]")
"+/−"
>>> assay_result("CCC [Propane]")
"+/−"
>>> assay_result("CC(C)O [2-Propanol]")
"−"
>>> assay_result("CC(C)(O)C(=O)O [2-Hydroxy isobutyric acid]")
"+"
